test: Human HepG2 cell viability assay in 384 well format; assay type: toxicity, cell-based; parameters: dose 125 nL, time 70.5 hour; concentration not given beside the values; details: HepG2 cells, read-out: Inhibition
readout.name: cytotoxicity at 70.5 h (%)
Lab book: enter the figure in %, no units written.

Can you look up the measured cytotoxicity at 70.5 h of CN(C)C(CNC(=O)c1nc(N2CCOCC2)ncc1Cl)c1ccco1 (stereo unspecified) for me? -19.3

Can you look up the measured cytotoxicity at 70.5 h of CC(=O)N(Cc1ncc(C)o1)C1CCN(Cc2sc(C)nc2C)C1 (stereo unspecified) for me? -3.28

Can you look up the measured cytotoxicity at 70.5 h of COCC1CC2(CCN(C(=O)c3cccc(C)c3)CC2)CO1 (stereo unspecified) for me? -12.6

Can you look up the measured cytotoxicity at 70.5 h of Cc1nc(C)c(CNC(=O)N2CCN(c3ccc(Cl)cn3)CC2)s1 for me? -3.03

Can you look up the measured cytotoxicity at 70.5 h of CN1CCN(C(=O)C2CC=CC2)c2ccccc21 for me? 9.41

Can you look up the measured cytotoxicity at 70.5 h of COc1ccccc1CNCc1nn(-c2ccccc2)c2c1CCC2 for me? 0.28

Can you look up the measured cytotoxicity at 70.5 h of CN1CCCN(S(C)(=O)=O)c2cc(F)ccc21 for me? -3.48

Can you look up the measured cytotoxicity at 70.5 h of CCC(Nc1nc(CCN)nc2ccccc12)c1cccs1 (stereo unspecified) for me? -3.38

Can you look up the measured cytotoxicity at 70.5 h of CN(C)C[C@H]1C[C@@H]2CN(C(=O)c3ccco3)C[C@@H]2O1 for me? -2.65

Can you look up the measured cytotoxicity at 70.5 h of O=S(=O)(NCCNc1cc(-n2cccc2)ncn1)c1cccs1 for me? -2.52

Can you look up the measured cytotoxicity at 70.5 h of Cc1ccc(C(=O)N2CC[C@@H]3[C@H]2CCC(=O)N3CCN(C)C)cn1 for me? 18.5

---

assay: Human HepG2 cell viability assay in 384 well format; type: toxicity, cell-based; design: dose 125 nL, time 70.5 hour; concentration not given beside the values; conditions: HepG2 cells, read-out: Inhibition
So I've got a bunch of compounds here, and I need their cytotoxicity at 70.5 h values.
Lab book: enter the figure in %, no units written.

Can you look up the measured cytotoxicity at 70.5 h of Cn1cc(N2CCC(Nc3ccc4nccnc4n3)C2=O)cn1 (stereo unspecified) for me? -10.5

Can you look up the measured cytotoxicity at 70.5 h of CNC(=O)c1cn[nH]c1C1CCN(Cc2ccccc2OC)C1 (stereo unspecified) for me? -8.12

Can you look up the measured cytotoxicity at 70.5 h of N#Cc1ccc(C(=O)NS(=O)(=O)c2ccc(F)c(F)c2)cc1 for me? 28.9

Can you look up the measured cytotoxicity at 70.5 h of O=c1c2sccc2nc2n1CCN(Cc1ccccc1C(F)(F)F)CC2 for me? -10.4

Can you look up the measured cytotoxicity at 70.5 h of CN(C)CCN1CCOCC2(C1)CN(Cc1nccs1)CCO2 (stereo unspecified) for me? 16.3

Can you look up the measured cytotoxicity at 70.5 h of CC(C)OCCS(=O)(=O)N1CCN(Cc2cccn2C)CC1 for me? -8.85

Can you look up the measured cytotoxicity at 70.5 h of O=C(CN1CCc2cncnc2C1)N1CCc2sccc2C1 for me? -11

Can you look up the measured cytotoxicity at 70.5 h of Cc1cccc(C(C(=O)NCCCc2nnc3ccccn23)N(C)C)c1 (stereo unspecified) for me? 20.2

Can you look up the measured cytotoxicity at 70.5 h of O=C(Nc1nc(-c2ccccc2)ns1)N1CC[C@H](O)C1 for me? -9.25

Can you look up the measured cytotoxicity at 70.5 h of CC(C)(C)c1ncc2c(n1)CN(C(=O)c1ccc(-n3cnnn3)cc1)C2 for me? -3.62

Can you look up the measured cytotoxicity at 70.5 h of Cc1nc(CN2CCN(C(=O)Cc3cccc(Cl)c3)CC2)no1 for me? -5.05

---

test: Human HepG2 cell viability assay in 384 well format; format: toxicity, cell-based; parameters: dose 125 nL, time 70.5 hour; concentration not given beside the values; conditions: HepG2 cells, read-out: Inhibition
So I've got a bunch of compounds here, and I need their cytotoxicity at 70.5 h values.
Lab book: enter the figure in %, no units written.

Can you look up the measured cytotoxicity at 70.5 h of Cc1cnn(Cc2cc(F)ccc2F)c1NC(=O)C1COCCO1 (configuration not stated) for me? -0.231

Can you look up the measured cytotoxicity at 70.5 h of O=C1OCCN1CCCN1CCCC1c1ccc(O)cc1 (configuration not stated) for me? -3.89

Can you look up the measured cytotoxicity at 70.5 h of CCN(CC1CCOC1)C(=O)Nc1ccc(N2CCOCC2)nc1 (configuration not stated) for me? 18.9

Can you look up the measured cytotoxicity at 70.5 h of Cc1nn(C)c(Cl)c1C1CCCN1CC(=O)NCc1ccco1 (configuration not stated) for me? -8.19

Can you look up the measured cytotoxicity at 70.5 h of Cn1cc(CN2C[C@@H]3OCCN(c4ncccn4)[C@@H]3C2)cn1 for me? 1.07

Can you look up the measured cytotoxicity at 70.5 h of O=C(C1COc2ccccc2O1)N1Cc2cnn(CCO)c2C1 (configuration not stated) for me? -3.6

Can you look up the measured cytotoxicity at 70.5 h of COCC(=O)N1CC[C@H]2OCC[C@@]2(c2nc(C)no2)C1 for me? 12.4

Can you look up the measured cytotoxicity at 70.5 h of Cc1nccn1-c1cc(CNC(=O)CCS(=O)(=O)C2CCCC2)ccn1 for me? 10.7

Can you look up the measured cytotoxicity at 70.5 h of COc1ccc(OC2CCN(c3ccncc3)CC2)cc1 for me? -3.12

Can you look up the measured cytotoxicity at 70.5 h of Cc1nc(C(=O)N2CCOC(Cc3ccccc3)C2)co1 (configuration not stated) for me? 23

Can you look up the measured cytotoxicity at 70.5 h of Cc1cc2nc(CO[C@H]3CN(C4CCCCC4)C[C@H]3F)[nH]c2cc1C for me? 3.34

Can you look up the measured cytotoxicity at 70.5 h of CC(C)Cn1cncc1CNC1CCSCC1 for me? 42.7

---

So I've got a bunch of compounds here, and I need their cytotoxicity at 70.5 h values.
assay: Human HepG2 cell viability assay in 384 well format; type: toxicity, cell-based; parameters: dose 125 nL, time 70.5 hour; concentration not given beside the values; conditions: HepG2 cells, read-out: Inhibition
Lab book: enter the figure in %, no units written.

Can you look up the measured cytotoxicity at 70.5 h of Cc1cc(C)c(-c2nc(-c3c(C)ncc4c3CCNC4)no2)o1 for me? -11.5

Can you look up the measured cytotoxicity at 70.5 h of CC(C)OC(=O)[C@@H]1CCN(C(=O)c2ccccn2)[C@@H]1c1ccc(F)cc1 for me? -6.08

Can you look up the measured cytotoxicity at 70.5 h of CC(CCn1cccn1)NCc1n[nH]c2c1CCCCC2 (stereo not drawn) for me? 22.7

Can you look up the measured cytotoxicity at 70.5 h of O=C(NCc1cnn(-c2ccc(F)cc2F)c1)C1CCCO1 (stereo not drawn) for me? -1.57

Can you look up the measured cytotoxicity at 70.5 h of O=C1CC[C@H]2CN(Cc3cccc(F)c3)CC[C@H]2N1CCc1c[nH]cn1 for me? -2.79

Can you look up the measured cytotoxicity at 70.5 h of N#Cc1cc(NS(=O)(=O)CC2CCCCO2)ccc1F (stereo not drawn) for me? -0.517

Can you look up the measured cytotoxicity at 70.5 h of CCc1cnc(C)nc1NCCNc1nc(C)cc(=O)[nH]1 for me? 0.367

Can you look up the measured cytotoxicity at 70.5 h of CC(C)Oc1ncc(C(=O)N2CCC(NC(=O)C3CC3)CC2)cc1Cl for me? 7

Can you look up the measured cytotoxicity at 70.5 h of COCC1CN(C(=O)COc2ccccc2)Cc2ncn(C)c21 (stereo not drawn) for me? -0.249

Can you look up the measured cytotoxicity at 70.5 h of CC(C)c1noc(CCNC(=O)N2CCSC(C(C)C)C2)n1 (stereo not drawn) for me? -3.03

Can you look up the measured cytotoxicity at 70.5 h of CN(C)C(=O)CN1CCCC(c2nccnc2-c2cccc(Cl)c2)C1 (stereo not drawn) for me? 1.03

Can you look up the measured cytotoxicity at 70.5 h of CCc1nc(C)c([C@H]2CN(C)C[C@@H]2C(=O)Nc2ccc(OC)cc2)[nH]1 for me? -7.07

Can you look up the measured cytotoxicity at 70.5 h of COc1ccc(C(=O)NCc2cccnc2N2CCOCC2)o1 for me? -0.423

Can you look up the measured cytotoxicity at 70.5 h of CN1C[C@]2(CC[C@@H](C(=O)O)CC2)Oc2ccccc2C1=O for me? -6.54

Can you look up the measured cytotoxicity at 70.5 h of Cc1nc(-c2cccc(N3CCC(N4CCCC4)CC3)c2)cs1 for me? 13.8

Can you look up the measured cytotoxicity at 70.5 h of O=C1CCSCC(C(=O)NCc2nc(-c3ccccc3)no2)N1 (stereo not drawn) for me? -11.9

Can you look up the measured cytotoxicity at 70.5 h of Cc1nn(CC(=O)N2CCN(c3ccccc3F)CC2)c(C)c1Cl for me? -2.28

Can you look up the measured cytotoxicity at 70.5 h of COCCNC(=O)[C@H]1C[C@@H]2CCN(c3ccncn3)C[C@H]2O1 for me? 1.69

Can you look up the measured cytotoxicity at 70.5 h of CNCc1cn(CC2CCN(Cc3cccs3)CC2)nn1 for me? 22.5

Can you look up the measured cytotoxicity at 70.5 h of Cc1cccc(-c2ncc(CNC(C)Cc3ncccc3C)cn2)c1 (stereo not drawn) for me? 48.7

Can you look up the measured cytotoxicity at 70.5 h of CC(C)c1nc(CCNC(=O)NCc2ccnc(N(C)C)c2)cs1 for me? -10.2

Can you look up the measured cytotoxicity at 70.5 h of CCCN(CCc1ccccc1)C(=O)c1ccccc1NCC(=O)O for me? -7.74

Can you look up the measured cytotoxicity at 70.5 h of CCCN1CC[C@@H]2OC[C@H](C(=O)Nc3cccnc3)C[C@@H]2C1 for me? 2.64
